# Experimental System: Gal(b1-4)GlcNAc(b1-3)Gal(b1-4)GlcNAc(b1-3)Gal(b1-4)GlcNAc(b1-2)Man(a1-3)[Gal(b1-4)GlcNAc(b1-3)Gal(b1-4)GlcNAc(b1-3)Gal(b1-4)GlcNAc(b1-2)Man(a1-6)]Man(b1-4)GlcNAc(b1-4)[Fuc(a1-6)]GlcNAc
# Assay Text: glycan array binding signal (z-score within array); higher = stronger binding
# Condition Set: glycan notation: IUPAC condensed, linker removed
This is one part of a sample in which the strongest signals are shown more often than they occur.
Measurement Type: glycan array binding signal (z-score)
Answer field: number only, no words.

Worked examples, 3 binders total:
Gal 1 (Mus musculus), P16045 (protein) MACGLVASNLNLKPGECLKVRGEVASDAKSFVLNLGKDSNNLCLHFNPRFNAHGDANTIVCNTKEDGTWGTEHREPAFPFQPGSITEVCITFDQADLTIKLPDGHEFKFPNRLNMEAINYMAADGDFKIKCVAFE; 2.53
CM2 (Cordyceps militaris) (protein) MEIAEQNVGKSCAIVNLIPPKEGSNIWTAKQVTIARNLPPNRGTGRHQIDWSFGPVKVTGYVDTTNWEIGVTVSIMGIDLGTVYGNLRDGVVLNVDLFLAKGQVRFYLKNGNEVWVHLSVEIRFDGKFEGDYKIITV; 3.05
DrGal9 (Danio rerio) (protein) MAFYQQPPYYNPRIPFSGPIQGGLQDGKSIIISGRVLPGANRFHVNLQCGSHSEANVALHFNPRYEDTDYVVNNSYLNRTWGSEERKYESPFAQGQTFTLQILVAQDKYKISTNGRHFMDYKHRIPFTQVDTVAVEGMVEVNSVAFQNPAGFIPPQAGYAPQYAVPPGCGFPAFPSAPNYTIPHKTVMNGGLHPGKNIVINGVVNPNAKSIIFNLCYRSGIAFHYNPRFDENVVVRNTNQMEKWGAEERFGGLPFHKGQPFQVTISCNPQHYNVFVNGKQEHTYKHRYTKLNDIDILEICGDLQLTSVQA; 4.02

Could you now look at the following binder, please?
Dear colleague, please send me the reported glycan array binding signal (z-score) for LCA (Lens culinaris), P02870 (protein) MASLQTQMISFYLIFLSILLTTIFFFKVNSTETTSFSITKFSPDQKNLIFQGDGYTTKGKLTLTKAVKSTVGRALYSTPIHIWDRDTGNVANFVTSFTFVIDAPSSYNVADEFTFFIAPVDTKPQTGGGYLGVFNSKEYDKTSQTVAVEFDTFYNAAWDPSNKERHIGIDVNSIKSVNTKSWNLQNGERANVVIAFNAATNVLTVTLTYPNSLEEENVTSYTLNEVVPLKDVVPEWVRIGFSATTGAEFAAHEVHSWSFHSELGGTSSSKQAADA when you can.
4.2
